Molecular target: T1, integrin αvβ3 (vitronectin receptor), purified and immobilized (UniProt P06756 31-1048; P05106 27-788)
T1 construct: Purified integrin coated at 50 ng per well; also called αvβ3 receptor
T1 sequence (P06756 31-1048, form in doubt, chain 1 of 2): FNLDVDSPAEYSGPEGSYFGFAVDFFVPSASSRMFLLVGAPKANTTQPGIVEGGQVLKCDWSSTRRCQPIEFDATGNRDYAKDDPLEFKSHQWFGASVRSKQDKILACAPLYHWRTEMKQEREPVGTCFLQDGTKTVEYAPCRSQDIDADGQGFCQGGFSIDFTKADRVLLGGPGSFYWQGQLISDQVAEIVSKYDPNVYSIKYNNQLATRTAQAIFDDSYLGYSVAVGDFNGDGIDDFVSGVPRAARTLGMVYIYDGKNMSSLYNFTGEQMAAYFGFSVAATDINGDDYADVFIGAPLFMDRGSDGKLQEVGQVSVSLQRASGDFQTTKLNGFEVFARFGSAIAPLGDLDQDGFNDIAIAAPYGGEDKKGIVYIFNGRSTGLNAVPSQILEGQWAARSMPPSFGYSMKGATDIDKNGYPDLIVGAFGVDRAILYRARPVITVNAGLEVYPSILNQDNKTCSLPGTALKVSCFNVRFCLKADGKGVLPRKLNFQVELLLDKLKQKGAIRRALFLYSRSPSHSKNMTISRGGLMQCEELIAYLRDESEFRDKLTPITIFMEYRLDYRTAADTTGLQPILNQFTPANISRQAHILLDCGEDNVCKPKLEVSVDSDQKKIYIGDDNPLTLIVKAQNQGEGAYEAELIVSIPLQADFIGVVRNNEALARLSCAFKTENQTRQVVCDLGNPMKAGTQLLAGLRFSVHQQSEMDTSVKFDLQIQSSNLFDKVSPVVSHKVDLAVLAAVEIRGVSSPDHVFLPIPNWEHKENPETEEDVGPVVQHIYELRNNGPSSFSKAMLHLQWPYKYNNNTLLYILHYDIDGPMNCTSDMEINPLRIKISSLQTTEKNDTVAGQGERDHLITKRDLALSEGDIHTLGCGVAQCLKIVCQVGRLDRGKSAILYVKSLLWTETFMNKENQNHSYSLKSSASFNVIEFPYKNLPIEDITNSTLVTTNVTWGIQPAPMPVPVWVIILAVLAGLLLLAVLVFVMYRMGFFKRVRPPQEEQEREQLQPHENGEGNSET
T1 sequence (P05106 27-788, form in doubt, chain 2 of 2): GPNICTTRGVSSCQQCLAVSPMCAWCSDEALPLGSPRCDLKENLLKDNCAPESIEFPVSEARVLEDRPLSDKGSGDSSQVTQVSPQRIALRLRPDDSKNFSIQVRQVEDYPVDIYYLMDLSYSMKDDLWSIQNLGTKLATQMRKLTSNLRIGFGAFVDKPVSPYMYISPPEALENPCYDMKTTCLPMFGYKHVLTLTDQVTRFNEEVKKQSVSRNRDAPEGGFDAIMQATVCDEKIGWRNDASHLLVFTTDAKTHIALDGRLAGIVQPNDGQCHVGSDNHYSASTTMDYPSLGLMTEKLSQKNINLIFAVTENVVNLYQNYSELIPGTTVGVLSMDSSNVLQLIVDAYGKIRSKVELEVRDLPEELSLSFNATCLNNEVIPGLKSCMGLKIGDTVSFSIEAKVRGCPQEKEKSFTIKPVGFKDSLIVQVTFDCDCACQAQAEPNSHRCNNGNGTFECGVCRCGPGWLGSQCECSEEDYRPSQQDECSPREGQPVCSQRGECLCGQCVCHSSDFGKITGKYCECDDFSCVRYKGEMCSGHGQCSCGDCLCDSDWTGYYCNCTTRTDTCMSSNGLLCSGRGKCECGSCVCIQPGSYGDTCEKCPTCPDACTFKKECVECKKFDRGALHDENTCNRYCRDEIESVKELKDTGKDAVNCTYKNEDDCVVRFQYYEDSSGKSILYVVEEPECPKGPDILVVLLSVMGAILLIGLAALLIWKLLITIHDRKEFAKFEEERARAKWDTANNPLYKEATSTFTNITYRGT
Assay: competition, 125I-fibrinogen (1 nM) binding to immobilized purified αvβ3, gamma counting; mean of duplicates ± SD
Square brackets hold non-standard residues; d marks the D form.
quantityName: log10(IC50) (log10 of the value in nM)
Recorded IC50 (log10, nM)

// solved cases for log10(IC50) follow
| binder | log10(IC50) |
| --- | --- |
| cyclo(ARGD[dF]L) (also: TFA salt, TFA salt) [peptide 62175, cyclo(ARGDfL)] | 3.02 |
| cyclo(RAD[dF]V) (also: TFA salt, also called cyclo(Arg-Ala-Asp-D-Phe-Val)) [peptide 62185, cyclo(RADfV)] | 2.95 |
| cyclo(R[dA]DFV) (also: TFA salt, TFA salt; also called cyclo(Arg-D-Ala-Asp-Phe-Val)) [peptide 62186, cyclo(RaDFV)] | 4.76 |
| cyclo(G[dR]GDFV) (also: TFA salt, TFA salt; also called cyclo(-Gly-D-Arg-Gly-Asp-Phe-Val); c-(GrGDFV)) [peptide 62181, cyclo(GrGDFV)] | 3.29 |

log10(IC50) in this record for cyclo(GRGD[dF]L) (also: TFA salt, TFA salt) [peptide 62179, cyclo(GRGDfL)] : 2.60

Each recorded value in this set is attributed to patent US20030176334A1.
